assay: self-splicing fitness, log relative to wild type (ln ratio); higher = more splicing; Tetrahymena group I intron in knt gene, E. coli kanamycin selection, DiMSum; sequences stand for … in CUCUCU…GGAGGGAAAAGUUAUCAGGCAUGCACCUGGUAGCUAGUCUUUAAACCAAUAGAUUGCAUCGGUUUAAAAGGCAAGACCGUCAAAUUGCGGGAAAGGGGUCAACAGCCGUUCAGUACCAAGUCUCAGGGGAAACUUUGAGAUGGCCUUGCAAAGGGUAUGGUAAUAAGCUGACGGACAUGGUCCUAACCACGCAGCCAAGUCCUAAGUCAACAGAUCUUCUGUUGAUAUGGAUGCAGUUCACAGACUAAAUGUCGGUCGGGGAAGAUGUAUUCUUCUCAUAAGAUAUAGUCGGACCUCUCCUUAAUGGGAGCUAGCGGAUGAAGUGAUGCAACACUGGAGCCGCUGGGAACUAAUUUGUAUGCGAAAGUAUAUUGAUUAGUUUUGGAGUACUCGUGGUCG; conditions: 30 °C;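 further: selection with 25 µg/mL kanamycin versus none on LB agar overnight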
The entries below come with measured self-splicing fitness (ln) values attached.

Below, 5 sequences whose answers are already recorded.
INSERT INTO measurements (sequenceinput, recordedvalue) VALUES
  ('AAGAAGCAAUAUUACGUCCG', -0.7),
  ('UUCCAGCAAUAUUACGAAAU', -2.78),
  ('AUUGAGCAAUAUUACGCGAC', -3.45),
  ('AGUCAGCAAUAUUACGCGCG', 0.157),
  ('AACUAGCAAUAUUACGGCCG', -0.725);

Prompt: What self-splicing fitness (ln) value was documented for this sequence, "GGUAAGCAAUAUUACGUCUU" ?
Response: -0.148

Prompt: Item "AUAGAGCAAUAUUACGCGUC" has what recorded self-splicing fitness (ln)?
Response: -1.8

Prompt: Quick check: self-splicing fitness (ln) of "CUGUAGCAAUAUUACGACCC" ?
Response: -1.04

====

experiment: self-splicing fitness, log relative to wild type (ln ratio); higher = more splicing; Tetrahymena group I intron in knt gene, E. coli kanamycin selection, DiMSum; sequences stand for … in CUCUCU…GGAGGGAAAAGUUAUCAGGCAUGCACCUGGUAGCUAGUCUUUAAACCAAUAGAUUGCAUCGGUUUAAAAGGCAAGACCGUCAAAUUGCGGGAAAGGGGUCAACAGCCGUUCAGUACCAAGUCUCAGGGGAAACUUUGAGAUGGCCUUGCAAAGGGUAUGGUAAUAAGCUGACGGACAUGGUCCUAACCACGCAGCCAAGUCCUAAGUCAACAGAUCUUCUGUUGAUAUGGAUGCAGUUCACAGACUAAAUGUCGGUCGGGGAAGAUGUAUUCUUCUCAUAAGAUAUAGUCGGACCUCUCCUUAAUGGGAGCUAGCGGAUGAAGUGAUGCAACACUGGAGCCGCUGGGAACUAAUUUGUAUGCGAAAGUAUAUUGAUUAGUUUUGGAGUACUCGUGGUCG; settings: 37 °C
A collection of sequences and their measured self-splicing fitness (ln)
Simply state the number, no unit and no words.

Examples with answers:
INSERT INTO measurements (sequenceinput, propertylabel, recordedvalue) VALUES
  ('AAAAAGCAAUAUUACGGAGA', 'self-splicing fitness (ln)', -3.11),
  ('GCCUAGCAAUAUUACGACCA', 'self-splicing fitness (ln)', -1.34),
  ('GGGGAGCAAUAUUACGUGCG', 'self-splicing fitness (ln)', -1.54),
  ('CCGUAGCAAUAUUACGGCCG', 'self-splicing fitness (ln)', -0.466);

Prompt: # self-splicing fitness (ln) lookup, item "GGCAAGCAAUAUUACGACUG"
Response: -0.532

====

experiment: self-splicing fitness, log relative to wild type (ln ratio); higher = more splicing; Tetrahymena group I intron in knt gene, E. coli kanamycin selection, DiMSum; sequences stand for … in CUCUCU…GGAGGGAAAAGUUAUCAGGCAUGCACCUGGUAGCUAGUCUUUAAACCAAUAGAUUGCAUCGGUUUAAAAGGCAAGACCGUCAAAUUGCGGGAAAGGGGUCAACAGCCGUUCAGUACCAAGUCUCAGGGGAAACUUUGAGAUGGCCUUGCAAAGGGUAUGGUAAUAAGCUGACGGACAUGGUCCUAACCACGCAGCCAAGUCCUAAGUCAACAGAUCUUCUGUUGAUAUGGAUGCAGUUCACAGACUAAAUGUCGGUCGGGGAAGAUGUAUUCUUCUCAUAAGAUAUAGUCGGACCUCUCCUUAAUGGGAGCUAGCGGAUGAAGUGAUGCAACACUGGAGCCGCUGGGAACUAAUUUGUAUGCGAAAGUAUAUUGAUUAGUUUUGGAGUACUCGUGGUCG; details: 30 °C
// values below are reported self-splicing fitness (ln)
Provide a numeric answer; units are not to be included.

INSERT INTO assay_data (sequenceinput, recordedvalue) VALUES
  ('AAUUAGCAAUAUUACGAACU', 0.296),
  ('AACGAGCAAUAUUACGUGUA', -2.55),
  ('CACUAGCAAUAUUACGGACG', 0.105),
  ('GAAAAGCAAUAUUACGUGCG', -1.44),
  ('CAAAAGCAAUAUUACGACGU', -0.652);

Prompt: Sample "GAAUAGCAAUAUUACGGCUA" — what was its self-splicing fitness (ln)?
Response: -0.51

Prompt: Entry under review: "GCACAGCAAUAUUACGAUCU" . Reported self-splicing fitness (ln)?
Response: -0.54

Prompt: Any idea what self-splicing fitness (ln) was measured for "CGACAGCAAUAUUACGCAUU" ?
Response: -2.93

Prompt: Item "GGCAAGCAAUAUUACGACUG" has what recorded self-splicing fitness (ln)?
Response: -1.02

Prompt: Given "AUAAAGCAAUAUUACGCAGC" , state its recorded self-splicing fitness (ln).
Response: -3.55

Prompt: If you can, please state the reported self-splicing fitness (ln) value of "AUGCAGCAAUAUUACGGCGG" .
Response: -1.76

Prompt: Entry "UAGUAGCAAUAUUACGGGCG" : reported self-splicing fitness (ln) = ?
Response: -0.694

Prompt: Quick one: self-splicing fitness (ln) for "GGCAAGCAAUAUUACGCGUG" ?
Response: -1.95

====

Entries and their self-splicing fitness (ln)
assay: self-splicing fitness, log relative to wild type (ln ratio); higher = more splicing; Tetrahymena group I intron in knt gene, E. coli kanamycin selection, DiMSum; sequences stand for … in CUCUCU…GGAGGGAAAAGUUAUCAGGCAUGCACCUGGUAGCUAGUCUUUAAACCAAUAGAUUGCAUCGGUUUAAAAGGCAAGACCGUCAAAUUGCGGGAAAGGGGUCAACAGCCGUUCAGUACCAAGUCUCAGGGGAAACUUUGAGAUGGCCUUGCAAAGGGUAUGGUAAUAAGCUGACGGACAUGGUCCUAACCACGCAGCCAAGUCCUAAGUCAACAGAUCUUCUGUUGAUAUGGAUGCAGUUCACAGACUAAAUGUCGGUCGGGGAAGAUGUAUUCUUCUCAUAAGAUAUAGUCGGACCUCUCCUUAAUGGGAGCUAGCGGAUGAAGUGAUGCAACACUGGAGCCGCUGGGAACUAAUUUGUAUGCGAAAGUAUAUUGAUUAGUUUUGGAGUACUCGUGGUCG; conditions: 37 °C
Give the figure by itself; no unit, no explanation.

INSERT INTO measurements (sequenceinput, propertylabel, recordedvalue) VALUES
  ('CGACAGCAAUAUUACGUGCC', 'self-splicing fitness (ln)', -0.684),
  ('AACGAGCAAUAUUACGCGCU', 'self-splicing fitness (ln)', -0.902),
  ('GCUAAGCAAUAUUACGUUCG', 'self-splicing fitness (ln)', -0.25);

Prompt: Requested field: self-splicing fitness (ln). Item: "GUAAAGCAAUAUUACGUCCA"
Response: 0.0855

Prompt: Could you share which self-splicing fitness (ln) value was measured for "GGGAAGCAAUAUUACGUGUG" ?
Response: -1.24

Prompt: So what's the measured self-splicing fitness (ln) for this one? "CGAAAGCAAUAUUACGCUCC"
Response: -1.11

Prompt: Could you share which self-splicing fitness (ln) value was measured for "CCAUAGCAAUAUUACGUUUA" ?
Response: -2.68

Prompt: # self-splicing fitness (ln) lookup, item "CUGGAGCAAUAUUACGGGGC"
Response: -2.29

====

assay: self-splicing fitness, log relative to wild type (ln ratio); higher = more splicing; Tetrahymena group I intron in knt gene, E. coli kanamycin selection, DiMSum; sequences stand for … in CUCUCU…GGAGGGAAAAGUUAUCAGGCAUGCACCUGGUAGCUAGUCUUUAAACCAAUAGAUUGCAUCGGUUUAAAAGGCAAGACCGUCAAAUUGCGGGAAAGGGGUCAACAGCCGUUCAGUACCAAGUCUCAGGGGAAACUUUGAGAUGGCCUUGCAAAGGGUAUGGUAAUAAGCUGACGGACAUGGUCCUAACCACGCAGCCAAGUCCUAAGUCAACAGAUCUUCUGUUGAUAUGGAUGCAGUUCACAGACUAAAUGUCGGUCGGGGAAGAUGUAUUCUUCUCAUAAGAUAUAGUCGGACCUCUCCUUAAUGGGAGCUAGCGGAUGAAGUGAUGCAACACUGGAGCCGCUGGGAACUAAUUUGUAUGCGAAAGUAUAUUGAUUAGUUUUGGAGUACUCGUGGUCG; settings: 30 °C
Cut-off -2 on self-splicing fitness (ln), inclusive. At or above means class 1; below means class 0.

Some entries whose results are on file:
INSERT INTO measurements (sequenceinput, classlabel) VALUES
  ('CAACAGCAAUAUUACGCGUC', 'class 0'),
  ('AAUGAGCAAUAUUACGCUCG', 'class 0');

Next:
Prompt: Quick check: does "ACGAAGCAAUAUUACGCUAU" have self-splicing fitness (ln) greater than or equal to -2?
Response: class 1

Cited source: the supplement of paper PMC7877785
